# Assay: RP-TLC on cellulose layers, lipophilicity evaluation with water-organic modifier binary solvent systems
# Assay type: physicochemical
# Experimental context: cellulose, water-acetone, 10 vol% organic modifier
Overview of recorded hRF for various compounds
Quantity: hRF

>>> numeric_result("CCOC(=O)[C@H](CCc1ccccc1)N[C@@H](C)C(=O)N1Cc2ccccc2C[C@H]1C(=O)O")
55
>>> numeric_result("NS(=O)(=O)c1cc2c(cc1Cl)NCNS2(=O)=O")
83
>>> numeric_result("CCOC(=O)C(CCc1ccccc1)N[C@@H](C)C(=O)N1CCC[C@H]1C(=O)O (some centres unmarked)")
78
>>> numeric_result("NCCCC[C@H](NC(CCc1ccccc1)C(=O)O)C(=O)N1CCC[C@H]1C(=O)O.O.O (some centres unmarked)")
86
>>> numeric_result("CCOC(=O)[C@H](CCc1ccccc1)N[C@H]1CCCN2CCC[C@@H](C(=O)O)N2C1=O")
66

###

# Assay: RP-TLC on cellulose layers, lipophilicity evaluation with water-organic modifier binary solvent systems
# Assay type: physicochemical
# Experimental context: cellulose, water-methanol, organic modifier 10-30%
Quantity: - m (slope, specific hydrophobic surface area)

>>> numeric_result("CCOC(=O)[C@H](CCc1ccccc1)N[C@@H](C)C(=O)N1Cc2ccccc2C[C@H]1C(=O)O [Substance 2]")
1.721
>>> numeric_result("NS(=O)(=O)c1cc2c(cc1Cl)NCNS2(=O)=O [HCTZ]")
2.366
>>> numeric_result("CCOC(=O)[C@H](CCc1ccccc1)N[C@H]1CCCN2CCC[C@@H](C(=O)O)N2C1=O [Substance 4]")
2.858
>>> numeric_result("NCCCC[C@H](NC(CCc1ccccc1)C(=O)O)C(=O)N1CCC[C@H]1C(=O)O.O.O (some centres unmarked) [Substance 3]")
1.871
>>> numeric_result("CCOC(=O)C(CCc1ccccc1)N[C@@H](C)C(=O)N1CCC[C@H]1C(=O)O (some centres unmarked) [Substance 1]")
1.635

###

Below, each of the compounds is paired with its reported hRF value.
# Assay: RP-TLC on cellulose layers, lipophilicity evaluation with water-organic modifier binary solvent systems
# Type: physicochemical
# Experimental context: cellulose, water-ethanol, 10 vol% organic modifier
# Procedure: The three, water-organic modifier, binary solvent systems were used with different volume fractions. All components of mobile phases were of analytical grade of purity. The TLC experiments were performed on 10 cm × 10 cm cellulose (Art. 105552, Merck, Germany) layers. […] The RF -values were calculated according to the relationship: […] Here, RM-values were calculated for each solute in each mobile phase according to the Bate-Smith and Westall equation ([29]): […]
Quantity: hRF

>>> numeric_result("CCOC(=O)[C@H](CCc1ccccc1)N[C@@H](C)C(=O)N1Cc2ccccc2C[C@H]1C(=O)O [Substance 2]")
65
>>> numeric_result("NCCCC[C@H](NC(CCc1ccccc1)C(=O)O)C(=O)N1CCC[C@H]1C(=O)O.O.O (some centres unmarked) [Substance 3]")
91
>>> numeric_result("CCOC(=O)[C@H](CCc1ccccc1)N[C@H]1CCCN2CCC[C@@H](C(=O)O)N2C1=O [Substance 4]")
73
>>> numeric_result("NS(=O)(=O)c1cc2c(cc1Cl)NCNS2(=O)=O [HCTZ]")
85
>>> numeric_result("CCOC(=O)C(CCc1ccccc1)N[C@@H](C)C(=O)N1CCC[C@H]1C(=O)O (some centres unmarked) [Substance 1]")
81

###

# Assay: RP-TLC on cellulose layers, lipophilicity evaluation with water-organic modifier binary solvent systems
# Type: physicochemical
# Experimental context: cellulose, water-ethanol, 25 vol% organic modifier
Quantity: hRF

>>> numeric_result("CCOC(=O)C(CCc1ccccc1)N[C@@H](C)C(=O)N1CCC[C@H]1C(=O)O (some centres unmarked)")
92
>>> numeric_result("CCOC(=O)[C@H](CCc1ccccc1)N[C@@H](C)C(=O)N1Cc2ccccc2C[C@H]1C(=O)O")
79
>>> numeric_result("NCCCC[C@H](NC(CCc1ccccc1)C(=O)O)C(=O)N1CCC[C@H]1C(=O)O.O.O (some centres unmarked)")
96
>>> numeric_result("CCOC(=O)[C@H](CCc1ccccc1)N[C@H]1CCCN2CCC[C@@H](C(=O)O)N2C1=O")
83
>>> numeric_result("NS(=O)(=O)c1cc2c(cc1Cl)NCNS2(=O)=O")
93

###

hRF overview
# Assay: RP-TLC on cellulose layers, lipophilicity evaluation with water-organic modifier binary solvent systems
# Type: physicochemical
# Experimental context: cellulose, water-ethanol, 15 vol% organic modifier
Quantity: hRF

>>> numeric_result("CCOC(=O)C(CCc1ccccc1)N[C@@H](C)C(=O)N1CCC[C@H]1C(=O)O (some centres unmarked) [Substance 1]")
85
>>> numeric_result("CCOC(=O)[C@H](CCc1ccccc1)N[C@H]1CCCN2CCC[C@@H](C(=O)O)N2C1=O [Substance 4]")
76
>>> numeric_result("NS(=O)(=O)c1cc2c(cc1Cl)NCNS2(=O)=O [HCTZ]")
87
>>> numeric_result("NCCCC[C@H](NC(CCc1ccccc1)C(=O)O)C(=O)N1CCC[C@H]1C(=O)O.O.O (some centres unmarked) [Substance 3]")
93
>>> numeric_result("CCOC(=O)[C@H](CCc1ccccc1)N[C@@H](C)C(=O)N1Cc2ccccc2C[C@H]1C(=O)O [Substance 2]")
70

###

Listing of entries alongside the reported hRF.
# Assay: RP-TLC on cellulose layers, lipophilicity evaluation with water-organic modifier binary solvent systems
# Type: physicochemical
# Experimental context: cellulose, water-acetone, 30 vol% organic modifier
Quantity: hRF

>>> numeric_result("CCOC(=O)C(CCc1ccccc1)N[C@@H](C)C(=O)N1CCC[C@H]1C(=O)O (some centres unmarked) [Substance 1]")
93
>>> numeric_result("NCCCC[C@H](NC(CCc1ccccc1)C(=O)O)C(=O)N1CCC[C@H]1C(=O)O.O.O (some centres unmarked) [Substance 3]")
96
>>> numeric_result("CCOC(=O)[C@H](CCc1ccccc1)N[C@@H](C)C(=O)N1Cc2ccccc2C[C@H]1C(=O)O [Substance 2]")
73
>>> numeric_result("NS(=O)(=O)c1cc2c(cc1Cl)NCNS2(=O)=O [HCTZ]")
95
>>> numeric_result("CCOC(=O)[C@H](CCc1ccccc1)N[C@H]1CCCN2CCC[C@@H](C(=O)O)N2C1=O [Substance 4]")
80

###

Listed here: items and their measured - m (slope, specific hydrophobic surface area).
# Assay: RP-TLC on cellulose layers, lipophilicity evaluation with water-organic modifier binary solvent systems
# Assay type: physicochemical
# Experimental context: cellulose, water-acetone, organic modifier 10-30%
Quantity: - m (slope, specific hydrophobic surface area)

>>> numeric_result("CCOC(=O)[C@H](CCc1ccccc1)N[C@@H](C)C(=O)N1Cc2ccccc2C[C@H]1C(=O)O [Substance 2]")
1.763
>>> numeric_result("CCOC(=O)C(CCc1ccccc1)N[C@@H](C)C(=O)N1CCC[C@H]1C(=O)O (some centres unmarked) [Substance 1]")
2.671
>>> numeric_result("NCCCC[C@H](NC(CCc1ccccc1)C(=O)O)C(=O)N1CCC[C@H]1C(=O)O.O.O (some centres unmarked) [Substance 3]")
2.849
>>> numeric_result("CCOC(=O)[C@H](CCc1ccccc1)N[C@H]1CCCN2CCC[C@@H](C(=O)O)N2C1=O [Substance 4]")
1.569
>>> numeric_result("NS(=O)(=O)c1cc2c(cc1Cl)NCNS2(=O)=O [HCTZ]")
2.975

###

Quick reference for hRF among some compounds
# Assay: RP-TLC on cellulose layers, lipophilicity evaluation with water-organic modifier binary solvent systems
# Assay type: physicochemical
# Experimental context: cellulose, water-methanol, 20 vol% organic modifier
Quantity: hRF

>>> numeric_result("NS(=O)(=O)c1cc2c(cc1Cl)NCNS2(=O)=O")
85
>>> numeric_result("CCOC(=O)[C@H](CCc1ccccc1)N[C@@H](C)C(=O)N1Cc2ccccc2C[C@H]1C(=O)O")
65
>>> numeric_result("CCOC(=O)C(CCc1ccccc1)N[C@@H](C)C(=O)N1CCC[C@H]1C(=O)O (some centres unmarked)")
83
>>> numeric_result("NCCCC[C@H](NC(CCc1ccccc1)C(=O)O)C(=O)N1CCC[C@H]1C(=O)O.O.O (some centres unmarked)")
91
>>> numeric_result("CCOC(=O)[C@H](CCc1ccccc1)N[C@H]1CCCN2CCC[C@@H](C(=O)O)N2C1=O")
75

###

The following compounds are listed with their measured hRF values.
# Assay: RP-TLC on cellulose layers, lipophilicity evaluation with water-organic modifier binary solvent systems
# Type: physicochemical
# Experimental context: cellulose, water-acetone, 20 vol% organic modifier
# Method: The three, water-organic modifier, binary solvent systems were used with different volume fractions. All components of mobile phases were of analytical grade of purity. The TLC experiments were performed on 10 cm × 10 cm cellulose (Art. 105552, Merck, Germany) layers. […] The RF -values were calculated according to the relationship: […] Here, RM-values were calculated for each solute in each mobile phase according to the Bate-Smith and Westall equation ([29]): […]
Quantity: hRF

>>> numeric_result("NCCCC[C@H](NC(CCc1ccccc1)C(=O)O)C(=O)N1CCC[C@H]1C(=O)O.O.O (some centres unmarked)")
92
>>> numeric_result("CCOC(=O)[C@H](CCc1ccccc1)N[C@H]1CCCN2CCC[C@@H](C(=O)O)N2C1=O")
73
>>> numeric_result("NS(=O)(=O)c1cc2c(cc1Cl)NCNS2(=O)=O")
88
>>> numeric_result("CCOC(=O)[C@H](CCc1ccccc1)N[C@@H](C)C(=O)N1Cc2ccccc2C[C@H]1C(=O)O")
66
>>> numeric_result("CCOC(=O)C(CCc1ccccc1)N[C@@H](C)C(=O)N1CCC[C@H]1C(=O)O (some centres unmarked)")
86

Data credit: paper PMC3813140
